# reported MIC; entries follow
# Test system: K. pneumoniae MP-546
# ASSAY_TEXT: Broth dilution MIC determination (CLSI), K. pneumoniae MP-546
# Format: cell-based
# CONDITION_LABEL: Klebsiella pneumoniae, MP546; strain MP-546, broth dilution

Use these answered entries as a reference point.
[
  {
    "COMPOUND": "CO[C@]1(C)C[C@@H](C)CN(C)[C@H]([C@H]2CCN(C(C)C)C2)COC(=O)C(C)(C)C(=O)[C@H](C)[C@H]1O[C@@H]1O[C@H](C)C[C@H](N(C)C)[C@H]1O [Compound 11]",
    "TEST_TARGET": "K. pneumoniae MP-546",
    "MIC": "< 4 µg/mL"
  },
  {
    "COMPOUND": "CN[C@H]1CC[C@H]([C@H]2COC(=O)C(C)(C)C(=O)[C@H](C)[C@@H](O[C@@H]3O[C@H](C)C[C@H](N(C)C)[C@H]3O)[C@](C)(OC)C[C@@H](C)CN2C)CC1 [Compound 26]",
    "TEST_TARGET": "K. pneumoniae MP-546",
    "MIC": "> 32 µg/mL"
  }
]

--- query ---
-- ask Fill in MIC for record CO[C@]1(C)C[C@@H](C)CN(C)[C@H](C2CCN(C(C)C)CC2)[C@H](C)OC(=O)C(C)(C)C(=O)[C@H](C)[C@H]1O[C@@H]1O[C@H](C)C[C@H](N(C)C)[C@H]1O [Compound 147]
-- reply 4 to 32 µg/mL

====

The compounds listed here are annotated with their MIC.
# Tested on: K. pneumoniae MP-546
# ASSAY_TEXT: Broth dilution MIC determination (CLSI), K. pneumoniae MP-546
# Assay type: cell-based
# CONDITION_LABEL: Klebsiella pneumoniae, MP546; strain MP-546, broth dilution

[
  {
    "GIVEN_SMILES": "CO[C@]1(C)C[C@@H](C)CN(C)[C@H](C2CCCCC2)COC(=O)C(C)(C)C(=O)[C@H](C)[C@H]1O[C@@H]1O[C@H](C)C[C@H](N(C)C)[C@H]1O",
    "REPORTED_VALUE": "> 32 µg/mL"
  }
]

-- ask Specify reported MIC for the compound shown: CO[C@]1(C)C[C@@H](C)CN(C)[C@H](C2CN(CC3CC3)C2)COC(=O)C(C)(C)C(=O)[C@H](C)[C@H]1O[C@@H]1O[C@H](C)C[C@H](N(C)C)[C@H]1O
-- reply < 4 µg/mL

-- ask Dear colleague, please send me the reported MIC for CO[C@]1(C)C[C@@H](C)CN(C)[C@H](C2CN(C(=O)CCN(C)CC3CC3)C2)COC(=O)C(C)(C)C(=O)[C@H](C)[C@H]1O[C@@H]1O[C@H](C)C[C@H](N(C)C)[C@H]1O when you can.
-- reply 4 to 32 µg/mL

====

# MIC per entry
# Tested on: K. pneumoniae MP-546
# ASSAY_TEXT: Broth dilution MIC determination (CLSI), K. pneumoniae MP-546
# Assay type: cell-based
# CONDITION_LABEL: Klebsiella pneumoniae, MP546; strain MP-546, broth dilution

The examples below pair each entry with its known result.
[
  {
    "GIVEN_SMILES": "CO[C@]1(C)C[C@@H](C)CN(C)[C@H](C2CN(CC3COC3)C2)COC(=O)C(C)(C)C(=O)[C@H](C)[C@H]1O[C@@H]1O[C@H](C)C[C@H](N(C)C)[C@H]1O",
    "REPORTED_VALUE": "4 to 32 µg/mL"
  },
  {
    "GIVEN_SMILES": "CCCN1C[C@H](C)C[C@@](C)(OC)[C@H](O[C@@H]2O[C@H](C)C[C@H](N(C)C)[C@H]2O)[C@@H](C)C(=O)C(C)(C)C(=O)OC[C@H]1C1CN(CC(C)C)C1",
    "REPORTED_VALUE": "> 32 µg/mL"
  }
]

--- query ---
-- ask Tell me MIC reported for CCC(=O)N1CCC([C@@H]2COC(=O)C(C)(C)C(=O)[C@H](C)[C@@H](O[C@@H]3O[C@H](C)C[C@H](N(C)C)[C@H]3O)[C@](C)(OC)C[C@@H](C)CN2C)CC1
-- reply 4 to 32 µg/mL
